# Assay comment: ATG_PXRE_CIS: Attagene CIS-FACTORIAL HepG2 Assay for human Pregnane X Receptor Element (PXRE) (AID 2282957)
# Condition info: HepG2 Attagene CIS-FACTORIAL PXRE reporter, mRNA; actives raise or lower the signal
Activity calls are given as the source filed them. The calls were made as follows: active = hit-call score of the fitted dose curve at least 0.9, where 1 is the maximum; inactive = score below 0.9.
Write down one outcome, taken from active, inactive

>  <Compound>
O=CN1CCCCC1

>  <Assigned category>
inactive

$$$$
>  <Compound>
CC1=NC(C)OC1C (stereo not given)

>  <Assigned category>
active

$$$$
>  <Compound>
N#[N+]c1ccc2c(S(=O)(=O)[O-])cccc2c1O

>  <Assigned category>
inactive

$$$$
>  <Compound>
Nc1ccc(N)c(Cl)c1

>  <Assigned category>
active

$$$$

Query: For this compound, state the assay outcome: "Cc1cc(C)c(C)c(C)c1"
Response: inactive

Query: For this compound, state the assay outcome: "Clc1nc2ccccc2s1"
Response: inactive

Query: For this compound, state the assay outcome: "O=C(c1ccccc1)c1ccc(O)c(O)c1O"
Response: active

Query: For this compound, state the assay outcome: "CCOCC(=O)O"
Response: active

Query: For this compound, state the assay outcome: "O=Nc1ccc(O)cc1"
Response: inactive
